From: PubChem BioAssay AID270

# Tested on: BDF1 mice, s.c. Lewis lung carcinoma, T/C %
# PROTOCOL TEXT: NCI In Vivo Anticancer Drug Screen. Data for tumor model Lewis Lung Carcinoma (subcutaneous) in B6D2F1 (BDF1) mice
# ASSAY CONDITIONS: endpoint: mean tumor weight; dose: 300.0 mg/kg/injection; schedule: Q01DX011 (ip); vehicle: other; higher = larger tumour
Results filed as inconclusive are left out.
READOUT LABEL: T/C

## Task Look up T/C with BDF1 mice, s.c. Lewis lung carcinoma, T/C % for this compound: `Cc1cccc(C)c1[N+](=O)[O-]`
## Result 67 % of control

## Task Lab note: need T/C for `CCN(C=O)CC` on BDF1 mice, s.c. Lewis lung carcinoma, T/C %, anyone have it?
## Result 87 % of control

## Task API: value(readout= T/C, system= BDF1 mice, s.c. Lewis lung carcinoma, T/C %, query= `CCOC(=O)C(C)(C)Br` )
## Result 98 % of control

## Task Identify the measured T/C of O=C(O)C1CCCCN1 (configuration not stated) for BDF1 mice, s.c. Lewis lung carcinoma, T/C %.
## Result 123 % of control

## Task Recorded T/C for CO[C@@H]1[C@@H](OC2OC(C)C(OC3CC(C)(O)C(OC(=O)CC(C)C)C(C)O3)C(N(C)C)C2O)[C@@H](CC=O)C[C@@H](C)C(=O)/C=C/C2O[C@H]2C[C@@H](C)OC(=O)C[C@H]1OC(C)=O (some centres not stated) with BDF1 mice, s.c. Lewis lung carcinoma, T/C %, please?
## Result 15 % of control

## Task # get_value(readout= T/C, system= BDF1 mice, s.c. Lewis lung carcinoma, T/C %) for `C1=Cc2ccccc2CC1`
## Result 45 % of control

## Task Provide value of T/C for this record tested with BDF1 mice, s.c. Lewis lung carcinoma, T/C %: CCCCSc1nc(N)nc2c1ncn2CC(C)CC (configuration not stated)
## Result 53 % of control
